Test: Inhibition of wild type Escherichia coli ATCC 25922 DNA topoisomerase-4 subunit 2ParC/2ParE assessed as pBR322 relaxation after 1 hr
IC50 reference
# output: numeric value plus its unit

Examples with answers:
What the record says about COc1ccc2nccc([C@@H](O)[C@H](O)[C@@H]3CC[C@@H](NCc4ccc5c(n4)NC(=O)CS5)CO3)c2c1 : IC50 is 125 nM

Query COc1ccc2ncc(F)c([C@@H](O)[C@H](O)[C@@H]3CC[C@@H](NCc4ccc5c(n4)NC(=O)CS5)CO3)c2c1 yields IC50 of 125 nM

Briefly, IC50 measured for COc1ccc2ncc(F)c([C@@H](O)[C@H](O)[C@@H]3CC[C@@H](NCc4ccc5c(n4)NC(=O)CS5)CO3)c2n1 : 30 nM

Notebook: COc1ccc2nccc([C@@H](O)[C@H](O)[C@H]3CC[C@H](NCc4ccc5c(n4)NC(=O)CS5)CO3)c2n1 , IC50 read as 125 nM

Documented IC50 of COc1ccc2nccc(/C=C/[C@@H]3CC[C@@H](NCc4ccc5c(n4)NC(=O)CS5)CO3)c2n1 : 30 nM

Item: COc1cnc2ccc(F)c([C@@H](O)[C@H](O)[C@@H]3CC[C@@H](NCc4cc5c(cn4)OCCS5)CO3)c2n1 | IC50: 125 nM

Let's switch to this compound now.
COc1ccc2nccc(CC[C@@H]3CC[C@@H](NCc4cc5c(cn4)OCCO5)CO3)c2n1 yielded IC50 of 125 nM

* * *

Test system: Staphylococcus aureus
Experiment: Antibacterial activity against wild type Staphylococcus aureus ATCC 29213 assessed as growth inhibition by broth microdilution method
Assay type: functional
reported.metric: MIC

Guide cases for MIC, answers given:
The recorded MIC for COc1cnc2ccc(F)c([C@@H](O)[C@H](O)[C@@H]3CC[C@@H](NCc4cc5c(cn4)OCCS5)CO3)c2n1 is ≤ 0.015 µg/mL

Kindly note the recorded MIC for COc1ccc2ncc(F)c([C@@H](O)[C@H](O)[C@@H]3CC[C@@H](NCc4cc5c(nn4)OCCS5)CO3)c2n1 , which is ≤ 0.015 µg/mL

Reported MIC ( COc1cnc2cccc([C@@H](O)[C@H](O)[C@@H]3CC[C@@H](NCc4ccc5c(n4)NC(=O)CS5)CO3)c2n1 ) = 0.03 µg/mL

Reported MIC for COc1cc(F)c2nccc([C@@H](O)[C@H](O)[C@@H]3CC[C@@H](NCc4ccc5c(n4)NC(=O)CS5)CO3)c2c1 was 0.03 µg/mL

According to the records, this compound COc1ccc2ncc(F)c([C@@H](O)[C@H](O)[C@@H]3CC[C@@H](NCc4cc5c(nn4)OCCO5)CO3)c2n1 displays MIC of 0.125 µg/mL

compound COc1ccc2nccc(CC[C@@H]3CC[C@@H](NCc4ccc5c(n4)NC(=O)CS5)CO3)c2n1 , MIC observed: 0.03 µg/mL

The reported MIC of the compound COc1ccc2nccc(OC[C@@H]3CC[C@@H](NCc4ccc5c(n4)NC(=O)CS5)CO3)c2n1 was 0.5 µg/mL

Reported MIC for COc1ccc2nccc(NC(=O)[C@@H]3CC[C@@H](NCc4ccc5c(n4)NC(=O)CS5)CO3)c2n1 was 0.25 µg/mL

Others:
Entry COc1ccc2nccc(/C=C/[C@@H]3CC[C@@H](NCc4ccc5c(n4)NC(=O)CS5)CO3)c2n1 ; MIC = 0.125 µg/mL

# MIC of COc1ccc2nccc(CC[C@@H]3CC[C@@H](NCc4cc5c(cn4)OCCO5)CO3)c2n1 = 0.06 µg/mL

Sure, the documented MIC for COc1ccc2nccc(/C=C/[C@@H]3CC[C@@H](NCc4cc5c(cn4)OCCO5)CO3)c2n1 is 0.25 µg/mL

Value of measured MIC for the entry COc1ccc2ncc(F)c([C@@H](O)CC[C@@H]3CCN(CCSc4cccs4)C[C@@H]3C(=O)O)c2c1 : 0.125 µg/mL

MIC reading for COc1ccc2nccc(C(O)C[C@@H]3CC[C@@H](NCc4cc5c(cn4)OCCO5)CO3)c2n1 (mixture of isomers) : 0.03 µg/mL

Entry under test: COc1cnc2ccc(F)c([C@@H](O)[C@H](O)[C@@H]3CC[C@@H](NCc4ccc5c(n4)NC(=O)CS5)CO3)c2n1 . Its MIC was 0.06 µg/mL

Lab note: COc1ccc2nccc([C@H](O)[C@@H](O)[C@@H]3CC[C@@H](NCc4ccc5c(n4)NC(=O)CS5)CO3)c2n1 gave MIC of 1 µg/mL

MIC recorded for this compound, COc1ccc2nccc([C@@H](O)[C@H](O)[C@@H]3CC[C@@H](NCc4ccc5c(n4)NC(=O)CS5)CO3)c2c1 , is 0.25 µg/mL

According to the records, this compound COc1ccc2nccc(C(O)C[C@@H]3CC[C@@H](NCc4ccc5c(n4)NC(=O)CS5)CO3)c2n1 (mixture of isomers) displays MIC of 0.03 µg/mL

So for COc1ccc2ncc(F)c([C@@H](O)[C@H](O)[C@@H]3CC[C@@H](NCc4cc5c(cn4)OCCO5)CO3)c2n1 , the logged MIC turned out to be 0.03 µg/mL

Memo: O=c1ccc2ccc(F)c3c2n1CC3CN1CCC(NCc2cc3c(cn2)OCCO3)CC1 (stereo unspecified) , reported MIC: 0.015 µg/mL

// MIC lookup, compound = COc1ccc2ncc(F)c([C@@H](O)[C@H](O)[C@@H]3CC[C@@H](NCc4ccc5c(n4)NC(=O)CS5)CO3)c2c1 , result: 0.25 µg/mL

Record COc1ccc2ncc(F)c([C@@H](O)[C@H](O)[C@@H]3CC[C@@H](NCc4ccc5c(n4)NC(=O)CS5)CO3)c2n1 , field MIC: 0.03 µg/mL

* * *

Assay: Oral bioavailability in Wistar rat at 10 mg/kg
Assay type: ADME, organism-based
Details: in vivo
reported.metric: bioavailability
For clarity, give the value followed by its unit.

// COc1cnc2cccc([C@@H](O)[C@H](O)[C@@H]3CC[C@@H](NCc4ccc5c(n4)NC(=O)CS5)CO3)c2n1 : bioavailability value = 26%

The record that follows has no bioavailability shown yet.
Entry COc1ccc2nccc(CC[C@@H]3CC[C@@H](NCc4ccc5c(n4)NC(=O)CS5)CO3)c2n1 , bioavailability reported as 29%

* * *

Molecular target: DNA gyrase (Staphylococcus aureus, UniProt P0A0K8+P20831)
Assay: Inhibition of wild type Staphylococcus aureus DNA gyrase subunit 2GyrA/2GyrB assessed as pBR322 supercoiling after 1 hr
reported.metric: pIC50
Please note pIC50 is a logarithmic value: minus log10 of concentration in mol/L. Answer with that number alone.

Here's what some known entries look like.
So the reported pIC50 for COc1ccc2nccc([C@@H](O)[C@H](O)[C@@H]3CC[C@@H](NCc4ccc5c(n4)NC(=O)CS5)CO3)c2c1 , on DNA gyrase (Staphylococcus aureus, UniProt P0A0K8+P20831), turned out to be 6.60

Reported DNA gyrase (Staphylococcus aureus, UniProt P0A0K8+P20831) pIC50 for item COc1ccc2nccc(NC(=O)[C@H]3CC[C@H](NCc4ccc5c(n4)NC(=O)CS5)CC3)c2n1 was 7.52

Here is the next item to consider.
For the compound COc1ccc2nccc([C@@H](O)[C@H](O)[C@@H]3CC[C@@H](NCc4cc5c(cn4)OCCO5)CO3)c2n1 , the measured pIC50 on DNA gyrase (Staphylococcus aureus, UniProt P0A0K8+P20831) was 7.52

* * *

Tested on: Streptococcus pneumoniae
Assay: Antibacterial activity against wild type Streptococcus pneumoniae ATCC 49619 assessed as growth inhibition by broth microdilution method
Type: functional
reported.metric: MIC (µg/mL)
Please reply with the bare figure in µg/mL and do not write the unit itself.

The cases that follow already have their MIC on record.
Reported MIC of COc1ccc2ncc(F)c([C@@H](O)[C@H](O)[C@@H]3CC[C@@H](NCc4cc5c(cn4)OCCO5)CO3)c2n1 : 0.03

# MIC (compound: COc1ccc2nccc([C@@H](O)[C@H](O)[C@@H]3CC[C@@H](NCc4ccc5c(n4)NC(=O)CS5)CO3)c2c1 ) is 0.25

Lab book: MIC of COc1ccc2nccc(C(O)C[C@@H]3CC[C@@H](NCc4cc5c(cn4)OCCO5)CO3)c2n1 (mixture of isomers) noted as 0.125

Quick note, MIC for COc1cnc2ccc(F)c([C@@H](O)[C@H](O)[C@@H]3CC[C@@H](NCc4cc5c(cn4)OCCS5)CO3)c2n1 landed at 0.03

MIC measured on COc1ccc2nccc([C@@H](O)[C@H](O)[C@@H]3CC[C@@H](NCc4cc5c(cn4)OCCO5)CO3)c2n1 = 0.5

For reference, reported MIC for COc1cnc2cccc([C@@H](O)[C@H](O)[C@@H]3CC[C@@H](NCc4ccc5c(n4)NC(=O)CS5)CO3)c2n1 stands at 0.06

Value of MIC reported for the compound COc1ccc2nccc([C@H](O)[C@@H](O)[C@@H]3CC[C@@H](NCc4ccc5c(n4)NC(=O)CS5)CO3)c2n1 is 1

// recorded MIC for COc1cnc2cccc([C@@H](O)[C@H](O)[C@@H]3CC[C@@H](NCc4ccc5c(n4)NC(=O)CS5)CO3)c2c1 : 0.25

***
Reported MIC ( COc1ccc2nccc(OC[C@@H]3CC[C@@H](NCc4cc5c(cn4)OCCO5)CO3)c2n1 ) = 4

# MIC (compound: N#Cc1ccc2ccc(=O)n(CCN3CC[C@H](NCc4cc5c(cn4)OCCO5)[C@H](F)C3)c2c1 ) is 0.25

Lookup result for COc1ccc2nccc(/C=C/[C@@H]3CC[C@@H](NCc4ccc5c(n4)NC(=O)CS5)CO3)c2n1 ; measured MIC: 1
